system: MCF7; assay: Antiproliferative activity against human MCF7 cells after 48 hrs by SRB assay; type: functional, cell-based; settings: MCF7, 48 h
pIC50: −log10 of the molar value.
ASSAY READOUT: pIC50

O=C(CCCCCCN1C(=O)/C(=N\O)c2cc(F)ccc21)NO | 5.81
CO/N=C1/C(=O)N(CCCCCCC(=O)NO)c2ccc(Cl)cc21 | 5.81
CO/N=C1/C(=O)N(CCCCCCC(=O)NO)c2ccccc21 | 5.77

[A] Cc1ccc2c(c1)/C(=N/O)C(=O)N2CCCCCCC(=O)NO
[B] CO/N=C1/C(=O)N(CCCCCCC(=O)NO)c2ccc(C)cc21
[C] CO/N=C1/C(=O)N(CCCCCCC(=O)NO)c2ccc(F)cc21
Problem: Put the items in order so that reported pIC50 rises from first to last. In your reply, arrange the labels in the requested order.
Solution: B, C, A
